test: xn = mol fraction of the nth substance listed, in the solute-free solvent; conditions: 313.15 K; x2 = 0.8
Measured solubility (g/100 g solution) values are reported for all entries that follow.
REPORTED_ENDPOINT: solubility (g/100 g solution)

compound="OCCN(CCO)c1nc(N2CCCCC2)c2nc(N(CCO)CCO)nc(N3CCCCC3)c2n1 + CCO + O" data_value=14.9
compound="CCCCCOC(=O)Nc1nc(=O)n(C2OC(C)C(O)C2O)cc1F (stereo unspecified) + CCOC(C)=O + CCCCCCC" data_value=2.49
compound="S=c1[nH]ncs1 + CC(C)=O + O" data_value=34
compound="S=c1[nH]ncs1 + CO + O" data_value=24.6
compound="CC(N)C(=O)O (stereo unspecified) + O + CO" data_value=6.26
compound="Cc1ncc(C[n+]2csc(CCO)c2C)c(N)n1.O=[N+]([O-])[O-] + O + CC(C)O" data_value=3.84
compound="CC(N)C(=O)O (stereo unspecified) + O + CC(C)=O" data_value=2.22
compound="OCCN(CCO)c1nc(N2CCCCC2)c2nc(N(CCO)CCO)nc(N3CCCCC3)c2n1 + CO + O" data_value=9.53
compound="Cc1ncc(C[n+]2csc(CCO)c2C)c(N)n1.O=[N+]([O-])[O-] + O + CO" data_value=4.72
compound="CC(N)C(=O)O (stereo unspecified) + O + CCO" data_value=3.96
compound="CC(N)C(=O)O (stereo unspecified) + O + CC(C)O" data_value=3.3
compound="Cc1ncc(C[n+]2csc(CCO)c2C)c(N)n1.O=[N+]([O-])[O-] + O + CC(C)=O" data_value=4.86
compound="S=c1[nH]ncs1 + CCO + O" data_value=22.1
compound="OCCN(CCO)c1nc(N2CCCCC2)c2nc(N(CCO)CCO)nc(N3CCCCC3)c2n1 + CC(C)O + O" data_value=15.7
compound="S=c1[nH]ncs1 + CCCO + O" data_value=18.9
compound="CC(N)C(=O)O (stereo unspecified) + O + CCCO" data_value=4.41

* * *

assay: xn = mol fraction of the nth substance listed, in the solute-free solvent; settings: 298.15 K; x2 = 0.4772
REPORTED_ENDPOINT: solubility (g/100 g solution)

compound="Nc1cccc(S(=O)(=O)c2cccc(N)c2)c1 + CCO + O" data_value=1.34
compound="COc1cc2c(cc1OC)-c1cc3ccc(OC)c(OC)c3c[n+]1CC2.[Cl-] + CCO + O" data_value=3.38
compound="CC(C)OC(=O)C(C)NP(=O)(OCC1OC(n2ccc(=O)[nH]c2=O)C(C)(F)C1O)Oc1ccccc1 (centres undefined) + CCO + O" data_value=24.2
compound="Cc1[nH]c(=O)c(C#N)cc1-c1ccncc1 + CCO + O" data_value=0.00629

* * *

test: xn = mol fraction of the nth substance listed, in the solute-free solvent; conditions: 298.15 K; x2 = 0.4117
REPORTED_ENDPOINT: solubility (g/100 g solution)

compound="c1ccc2[nH]c(-c3cscn3)nc2c1 + CCCO + O" data_value=0.435
compound="c1ccc2[nH]c(-c3cscn3)nc2c1 + CC(C)O + O" data_value=0.213
compound="Nc1cccc(S(=O)(=O)c2cccc(N)c2)c1 + CC(C)O + O" data_value=0.841
compound="Cc1[nH]c(=O)c(C#N)cc1-c1ccncc1 + CC(C)O + O" data_value=0.0137
compound="CN1CCN(C2=Nc3cc(Cl)ccc3Nc3ccccc32)CC1 + CC(C)O + O" data_value=1.09
compound="Nc1nccnc1Cl + CC(C)O + O" data_value=0.887

* * *

Attribute: solubility (g/100 g solution)
experiment: xn = mol fraction of the nth substance listed, in the solute-free solvent; conditions: 293.15 K; x2 = 0.7788
REPORTED_ENDPOINT: solubility (g/100 g solution)

compound="Cc1[nH]c(=O)c(C#N)cc1-c1ccncc1 + CCO + O" data_value=0.00705
compound="COc1cc2c(cc1OC)-c1cc3ccc(OC)c(OC)c3c[n+]1CC2.[Cl-] + CCO + O" data_value=3.08
compound="Nc1cccc(S(=O)(=O)c2cccc(N)c2)c1 + CCO + O" data_value=1.52
compound="CC(C)OC(=O)C(C)NP(=O)(OCC1OC(n2ccc(=O)[nH]c2=O)C(C)(F)C1O)Oc1ccccc1 (centres undefined) + CCO + O" data_value=28.8

* * *

We begin with a simple list: items and their reported solubility (g/100 g solution).
test: xn = mol fraction of the nth substance listed, in the solute-free solvent; conditions: 298.15 K; x2 = 0.3
REPORTED_ENDPOINT: solubility (g/100 g solution)

compound="S=c1[nH]ncs1 + CCO + O" data_value=8.6
compound="S=c1[nH]ncs1 + CC(C)=O + O" data_value=19.6
compound="S=c1[nH]ncs1 + CCCO + O" data_value=10.8

* * *

experiment: xn = mol fraction of the nth substance listed, in the solute-free solvent; conditions: 278.15 K; x2 = 0.2
REPORTED_ENDPOINT: solubility (g/100 g solution)

compound="S=c1[nH]ncs1 + CCO + O" data_value=1.93
compound="Cc1ncc(C[n+]2csc(CCO)c2C)c(N)n1.O=[N+]([O-])[O-] + O + CO" data_value=0.323
compound="S=c1[nH]ncs1 + CO + O" data_value=0.926
compound="S=c1[nH]ncs1 + CC(C)=O + O" data_value=6.07
compound="S=c1[nH]ncs1 + CCCO + O" data_value=3.48

* * *

Quick reference: solubility (g/100 g solution) of the listed items.
experiment: xn = mol fraction of the nth substance listed, in the solute-free solvent; details: 288.15 K; x2 = 0.3
REPORTED_ENDPOINT: solubility (g/100 g solution)

compound="S=c1[nH]ncs1 + CO + O" reported_endpoint="solubility (g/100 g solution)" data_value=2.65
compound="S=c1[nH]ncs1 + CCCO + O" reported_endpoint="solubility (g/100 g solution)" data_value=7.53
compound="Cc1ncc(C[n+]2csc(CCO)c2C)c(N)n1.O=[N+]([O-])[O-] + O + CC(C)O" reported_endpoint="solubility (g/100 g solution)" data_value=0.051
compound="CCCCCOC(=O)Nc1nc(=O)n(C2OC(C)C(O)C2O)cc1F (stereo not given) + CCOC(C)=O + CCCCCC" reported_endpoint="solubility (g/100 g solution)" data_value=0.0766
compound="CCCCCOC(=O)Nc1nc(=O)n(C2OC(C)C(O)C2O)cc1F (stereo not given) + CCOC(C)=O + CCCCCCC" reported_endpoint="solubility (g/100 g solution)" data_value=0.0361

* * *

assay: xn = mol fraction of the nth substance listed, in the solute-free solvent; details: 308.15 K; x2 = 0.3698
REPORTED_ENDPOINT: solubility (g/100 g solution)

molecule="COc1cc2c(cc1OC)-c1cc3ccc(OC)c(OC)c3c[n+]1CC2.[Cl-] + CCO + O" reported_endpoint="solubility (g/100 g solution)" data_value=4.55
molecule="CC(C)OC(=O)C(C)NP(=O)(OCC1OC(n2ccc(=O)[nH]c2=O)C(C)(F)C1O)Oc1ccccc1 (centres undefined) + CCO + O" reported_endpoint="solubility (g/100 g solution)" data_value=29
molecule="Cc1[nH]c(=O)c(C#N)cc1-c1ccncc1 + CCO + O" reported_endpoint="solubility (g/100 g solution)" data_value=0.00676
molecule="Nc1cccc(S(=O)(=O)c2cccc(N)c2)c1 + CCO + O" reported_endpoint="solubility (g/100 g solution)" data_value=1.64

* * *

assay: xn = mol fraction of the nth substance listed, in the solute-free solvent; conditions: 323.15 K; x2 = 0.6
Collected solubility (g/100 g solution) values appear next to each entry.
REPORTED_ENDPOINT: solubility (g/100 g solution)

molecule="S=c1[nH]ncs1 + CO + O" reported_endpoint="solubility (g/100 g solution)" data_value=27.5
molecule="OCCN(CCO)c1nc(N2CCCCC2)c2nc(N(CCO)CCO)nc(N3CCCCC3)c2n1 + CO + O" reported_endpoint="solubility (g/100 g solution)" data_value=11.6
molecule="S=c1[nH]ncs1 + CC(C)=O + O" reported_endpoint="solubility (g/100 g solution)" data_value=39.8
molecule="S=c1[nH]ncs1 + CCCO + O" reported_endpoint="solubility (g/100 g solution)" data_value=26.4
molecule="OCCN(CCO)c1nc(N2CCCCC2)c2nc(N(CCO)CCO)nc(N3CCCCC3)c2n1 + CC(C)O + O" reported_endpoint="solubility (g/100 g solution)" data_value=31.7
molecule="CC(N)C(=O)O (stereo not drawn) + O + CCCO" reported_endpoint="solubility (g/100 g solution)" data_value=1.29
molecule="CC(N)C(=O)O (stereo not drawn) + O + CC(C)=O" reported_endpoint="solubility (g/100 g solution)" data_value=0.484
molecule="CC(N)C(=O)O (stereo not drawn) + O + CO" reported_endpoint="solubility (g/100 g solution)" data_value=2.95
molecule="CCCCCOC(=O)Nc1nc(=O)n(C2OC(C)C(O)C2O)cc1F (stereo not drawn) + CCOC(C)=O + CCCCCC" reported_endpoint="solubility (g/100 g solution)" data_value=1.71
molecule="CC(N)C(=O)O (stereo not drawn) + O + CC(C)O" reported_endpoint="solubility (g/100 g solution)" data_value=0.842
molecule="CC(N)C(=O)O (stereo not drawn) + O + CCO" reported_endpoint="solubility (g/100 g solution)" data_value=1.37
molecule="S=c1[nH]ncs1 + CCO + O" reported_endpoint="solubility (g/100 g solution)" data_value=28.5
molecule="OCCN(CCO)c1nc(N2CCCCC2)c2nc(N(CCO)CCO)nc(N3CCCCC3)c2n1 + CCO + O" reported_endpoint="solubility (g/100 g solution)" data_value=29.3
